List of IC50 values.
Target protein (sequence): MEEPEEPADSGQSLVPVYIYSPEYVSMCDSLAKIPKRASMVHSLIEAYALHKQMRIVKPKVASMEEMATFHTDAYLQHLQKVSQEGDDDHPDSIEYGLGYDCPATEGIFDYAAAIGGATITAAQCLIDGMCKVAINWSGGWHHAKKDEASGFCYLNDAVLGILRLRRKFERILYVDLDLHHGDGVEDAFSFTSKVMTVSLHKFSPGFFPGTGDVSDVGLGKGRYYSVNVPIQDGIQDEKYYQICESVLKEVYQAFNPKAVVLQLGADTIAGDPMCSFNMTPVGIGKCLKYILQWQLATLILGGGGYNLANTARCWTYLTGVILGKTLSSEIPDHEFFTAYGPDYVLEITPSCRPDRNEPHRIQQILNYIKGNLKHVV

- compound: "CC[C@H]1Cc2c(F)cc(C(=O)NO)cc2CN1CC1CC2CCC(C1)N2C (single isomer, unassigned)"
  IC50: "10 to 100 µM"
- compound: "O=C(NO)c1cc(F)c2c(c1)CN1CCCC[C@@H]1C2"
  IC50: "10 to 100 µM"
- compound: "CC[C@@H]1Cc2c(F)cc(C(=O)NO)cc2CN1C1CC2(CCOCC2)C1 (single isomer, unassigned)"
  IC50: "10 to 100 µM"

Answer with reported IC50 of CN1Cc2cc(C(=O)NO)ccc2[C@@H]2CCCN21 (single isomer, unassigned)
0.1 to 1 µM

Answer with reported IC50 of CC[C@H]1Cc2c(F)cc(C(=O)NO)cc2CN1CC1CC2(CCCCC2)C1 (single isomer, unassigned)
0.1 to 1 µM

Answer with reported IC50 of CC(=O)N1CC2(CCC2N2CCc3cc(C(=O)NO)cc(F)c3C2)C1 (stereo not drawn)
1 to 10 µM

---

Target or system Full length Human HDAC8 (Homo sapiens, UniProt Q9BY41); recorded quantity IC50.

Solved cases below.
- compound: "CN1CC[C@@]2(CC[C@@H](N3CCc4cc(C(=O)NO)cc(F)c4C3)C2)C1 (single isomer, unassigned)"
  test.readout: "IC50"
  observed: "10 to 100 µM"
- compound: "[2H]c1cc2c(cc1C(=O)NO)CCN(C1CC3(CCCCC3)C1)C2"
  test.readout: "IC50"
  observed: "10 to 100 µM"
- compound: "C[C@@H]1C[C@@H]2c3c(F)cc(C(=O)NO)cc3CCN2C1 (single isomer, unassigned)"
  test.readout: "IC50"
  observed: "1 to 10 µM"
- compound: "CC[C@H]1N(Cc2ccc(C(=O)NO)cc2F)CC12CCCC2"
  test.readout: "IC50"
  observed: "1 to 10 µM"
- compound: "CN1CC[C@@]2(CC[C@@H]2N2CCc3cc(C(=O)NO)cc(F)c3C2)C1 (single isomer, unassigned)"
  test.readout: "IC50"
  observed: "1 to 10 µM"
- compound: "O=C(NO)c1cc(F)c2c(c1)CCN([C@H]1CC[C@]13CCOC3)C2 (single isomer, unassigned)"
  test.readout: "IC50"
  observed: "10 to 100 µM"
- compound: "CC[C@H]1Cc2c(F)cc(C(=O)NO)cc2CN1C1CC2(C1)CN(C)C2 (single isomer, unassigned)"
  test.readout: "IC50"
  observed: "1 to 10 µM"
- compound: "CC[C@H]1Cc2c(F)cc(C(=O)NO)cc2CN1CC12CC(NC)(C1)C2 (single isomer, unassigned)"
  test.readout: "IC50"
  observed: "10 to 100 µM"
- compound: "CC[C@@H]1Cc2c(F)cc(C(=O)NO)cc2CN1C1CC2(CCN(C3CC3)CC2)C1 (single isomer, unassigned)"
  test.readout: "IC50"
  observed: "10 to 100 µM"
- compound: "C[C@@H]1CC[C@H]2c3c(F)cc(C(=O)NO)cc3CCN12 (single isomer, unassigned)"
  test.readout: "IC50"
  observed: "1 to 10 µM"

Fill in IC50 for "O=C(NO)c1cc(F)c2c(c1)CN1CCC[C@H]1C2" tested with Full length Human HDAC8 (Homo sapiens, UniProt Q9BY41).
1 to 10 µM

Fill in IC50 for CC[C@H]1Cc2c(F)cc(C(=O)NO)cc2CN1C1CC2(CCN(C3CC3)CC2)C1 (single isomer, unassigned) tested with Full length Human HDAC8 (Homo sapiens, UniProt Q9BY41).
10 to 100 µM

Fill in IC50 for CC[C@@H]1Cc2c(F)cc(C(=O)NO)cc2CN1CC12CC(C1)N(C)C2 (single isomer, unassigned) tested with Full length Human HDAC8 (Homo sapiens, UniProt Q9BY41).
10 to 100 µM

Fill in IC50 for "O=C(NO)c1ccc2c(c1)CN1CCC[C@H]21" tested with Full length Human HDAC8 (Homo sapiens, UniProt Q9BY41).
1 to 10 µM

Fill in IC50 for "O=C(NO)c1ccc2c(c1)CN1CCCC[C@H]1C2" tested with Full length Human HDAC8 (Homo sapiens, UniProt Q9BY41).
10 to 100 µM

---

# experimental.system: Full length Human HDAC6 (Homo sapiens, UniProt Q9UBN7)
# Construct: Full length Human HDAC6; FLAG (C); host or cells: baculovirus expression system
# Sequence (Q9UBN7 whole entry): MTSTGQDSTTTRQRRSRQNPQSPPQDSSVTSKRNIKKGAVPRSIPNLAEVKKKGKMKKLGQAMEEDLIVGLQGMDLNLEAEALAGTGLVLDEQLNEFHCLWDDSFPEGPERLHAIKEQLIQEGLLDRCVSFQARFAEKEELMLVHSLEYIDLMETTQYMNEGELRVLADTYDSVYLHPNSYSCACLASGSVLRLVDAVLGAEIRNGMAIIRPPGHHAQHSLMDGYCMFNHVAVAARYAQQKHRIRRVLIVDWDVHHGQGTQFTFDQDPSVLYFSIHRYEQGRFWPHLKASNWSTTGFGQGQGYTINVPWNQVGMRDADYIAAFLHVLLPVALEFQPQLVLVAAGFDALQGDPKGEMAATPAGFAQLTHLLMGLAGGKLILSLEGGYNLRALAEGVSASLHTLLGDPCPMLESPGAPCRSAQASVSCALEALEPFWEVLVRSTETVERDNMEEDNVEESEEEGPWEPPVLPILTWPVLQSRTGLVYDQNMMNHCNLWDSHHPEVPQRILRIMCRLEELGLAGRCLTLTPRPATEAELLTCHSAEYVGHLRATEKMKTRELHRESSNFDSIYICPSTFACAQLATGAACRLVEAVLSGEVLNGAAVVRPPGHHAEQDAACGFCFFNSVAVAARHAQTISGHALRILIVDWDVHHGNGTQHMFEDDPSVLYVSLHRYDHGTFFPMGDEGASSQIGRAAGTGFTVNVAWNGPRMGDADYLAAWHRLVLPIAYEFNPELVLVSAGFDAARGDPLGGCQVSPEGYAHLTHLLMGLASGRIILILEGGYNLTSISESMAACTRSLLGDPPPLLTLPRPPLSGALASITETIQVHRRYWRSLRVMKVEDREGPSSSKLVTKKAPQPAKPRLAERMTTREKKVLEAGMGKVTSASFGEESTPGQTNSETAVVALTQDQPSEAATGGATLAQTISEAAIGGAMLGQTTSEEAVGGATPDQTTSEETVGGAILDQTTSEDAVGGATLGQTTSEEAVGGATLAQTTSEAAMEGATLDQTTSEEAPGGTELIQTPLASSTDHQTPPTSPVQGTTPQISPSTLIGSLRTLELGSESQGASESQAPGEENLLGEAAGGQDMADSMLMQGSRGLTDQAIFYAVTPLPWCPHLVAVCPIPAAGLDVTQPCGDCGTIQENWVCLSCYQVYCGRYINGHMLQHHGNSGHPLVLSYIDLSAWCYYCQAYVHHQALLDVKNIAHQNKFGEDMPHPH
# assay.remarks: Caliper endpoint assay for HDAC enzymatic activity (HDAC6)
# Type: biochemical
# test.conditions: ratio of HDAC8 IC50/HDAC6 IC50
test.readout: Selectivity (6 v 8)

Solved cases below.
- molecule: "CC[C@H]1Cc2c(F)cc(C(=O)NO)cc2CN1C1CC2(CCN(C(C)=O)CC2)C1 (single isomer, unassigned)"
  experimental.system: "Full length Human HDAC6 (Homo sapiens, UniProt Q9UBN7)"
  observed: "IV (IV: >100-1000)"
- molecule: "O=C(NO)c1cc(F)c2c(c1)CCN([C@@H]1CCN(Cc3ccccc3)C3(CCC3)C1)C2 (single isomer, unassigned)"
  experimental.system: "Full length Human HDAC6 (Homo sapiens, UniProt Q9UBN7)"
  observed: "IV (IV: >100-1000)"
- molecule: "CN1CC[C@]2(CC[C@H]2N2CCc3cc(C(=O)NO)cc(F)c3C2)C1 (single isomer, unassigned)"
  experimental.system: "Full length Human HDAC6 (Homo sapiens, UniProt Q9UBN7)"
  observed: "III (III: >10-100)"
- molecule: "O=C(NO)c1cc(F)c2c(c1)CCN(C1CCC3(CC1)CN(Cc1ccccc1)C3)C2"
  experimental.system: "Full length Human HDAC6 (Homo sapiens, UniProt Q9UBN7)"
  observed: "IV (IV: >100-1000)"
- molecule: "CC(=O)N1CCC2(CCC(N3CCc4cc(C(=O)NO)cc(F)c4C3)C2)CC1 (stereo not drawn)"
  experimental.system: "Full length Human HDAC6 (Homo sapiens, UniProt Q9UBN7)"
  observed: "IV (IV: >100-1000)"
- molecule: "CC[C@@H]1Cc2c(F)cc(C(=O)NO)cc2CN1CC12CC3CC(CC(C3)C1)C2 (single isomer, unassigned)"
  experimental.system: "Full length Human HDAC6 (Homo sapiens, UniProt Q9UBN7)"
  observed: "III (III: >10-100)"
- molecule: "O=C(NO)c1cc(F)c2c(c1)CCN([C@H]1CCNC3(CCC3)C1)C2 (single isomer, unassigned)"
  experimental.system: "Full length Human HDAC6 (Homo sapiens, UniProt Q9UBN7)"
  observed: "IV (IV: >100-1000)"
- molecule: "CC1(C)C[C@H]2Cc3c(F)cc(C(=O)NO)cc3CN2C1"
  experimental.system: "Full length Human HDAC6 (Homo sapiens, UniProt Q9UBN7)"
  observed: "III (III: >10-100)"
- molecule: "CC[C@@H]1Cc2c(F)cc(C(=O)NO)cc2CN1C1CC2(CCN(C(C)=O)CC2)C1 (single isomer, unassigned)"
  experimental.system: "Full length Human HDAC6 (Homo sapiens, UniProt Q9UBN7)"
  observed: "III (III: >10-100)"
- molecule: "CC[C@H]1Cc2c(F)cc(C(=O)NO)cc2CN1C[C@@]12C[C@@H](CO1)N(C)C2 (single isomer, unassigned)"
  experimental.system: "Full length Human HDAC6 (Homo sapiens, UniProt Q9UBN7)"
  observed: "IV (IV: >100-1000)"

Answer with reported Selectivity (6 v 8) of CN1CCC[C@]2(C1)C[C@@H](N1CCc3cc(C(=O)NO)cc(F)c3C1)C2 (single isomer, unassigned)
IV (IV: >100-1000)

Answer with reported Selectivity (6 v 8) of "NC12CC(CN3CCc4cc(C(=O)NO)cc(F)c4C3)(C1)C2"
IV (IV: >100-1000)

Answer with reported Selectivity (6 v 8) of "O=C1CC2CCC(C1)N2Cc1ccc(C(=O)NO)cc1F"
III (III: >10-100)

Answer with reported Selectivity (6 v 8) of O=C(NO)c1cc(F)c2c(c1)C[C@@H]1CCCN1C2 (single isomer, unassigned)
III (III: >10-100)

Answer with reported Selectivity (6 v 8) of CC(=O)N1CC2(CCC2N2CCc3cc(C(=O)NO)cc(F)c3C2)C1 (stereo not drawn)
IV (IV: >100-1000)

Answer with reported Selectivity (6 v 8) of O=C(NO)c1cc(F)c2c(c1)CCN(C[C@H]1CCCCO1)C2 (single isomer, unassigned)
IV (IV: >100-1000)

Answer with reported Selectivity (6 v 8) of "CN1Cc2cc(C(=O)NO)cc(F)c2CN1Cc1ccccc1"
IV (IV: >100-1000)

Answer with reported Selectivity (6 v 8) of "O=C(NO)c1cc(F)c2c(c1)CCN(CC13CCC(CC1)C(=O)N3)C2"
V (V: >1000)

Answer with reported Selectivity (6 v 8) of O=C(NO)c1cc(F)c2c(c1)CCN(C1CCC13CCC3)C2 (stereo not drawn)
IV (IV: >100-1000)

Answer with reported Selectivity (6 v 8) of CN1CC[C@]2(CC[C@H](N3CCc4cc(C(=O)NO)cc(F)c4C3)C2)C1 (single isomer, unassigned)
V (V: >1000)

Answer with reported Selectivity (6 v 8) of "O=C(NO)c1cc(F)c(CN2C3CCC2COC3)cc1F"
III (III: >10-100)

Answer with reported Selectivity (6 v 8) of "O=C(NO)c1cc(F)c2c(c1)CCN1CCC[C@@H]21"
IV (IV: >100-1000)

Answer with reported Selectivity (6 v 8) of O=C(NO)c1cc(F)c2c(c1)CCN(C1CCC13CCN(C1CC1)CC3)C2 (stereo not drawn)
III (III: >10-100)
